Molecular target: FPR2 (Homo sapiens, UniProt P25090)
Sequence (P25090 1-351): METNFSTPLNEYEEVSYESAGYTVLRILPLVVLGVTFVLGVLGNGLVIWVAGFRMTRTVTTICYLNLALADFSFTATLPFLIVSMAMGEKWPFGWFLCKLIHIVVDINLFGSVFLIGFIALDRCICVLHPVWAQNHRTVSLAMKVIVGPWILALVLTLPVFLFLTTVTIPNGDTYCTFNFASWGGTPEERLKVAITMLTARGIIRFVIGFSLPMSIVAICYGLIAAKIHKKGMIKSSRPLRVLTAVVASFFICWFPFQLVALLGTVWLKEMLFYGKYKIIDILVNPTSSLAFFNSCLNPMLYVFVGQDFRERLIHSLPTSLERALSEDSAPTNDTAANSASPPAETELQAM
Experiment: Inhibition of WKYMVM-induced [Ca2+]i flux in FPR2-HL60 cells
Conditions: 10 min preincubation, 5 nM WKYMVM; N.A. = no activity at < 50 µM; read-out: FPR1/FPR2 Agonist-Induced Δ[Ca^2+]i FPR2-HL60 IC50
pIC50: −log10 of the molar value.
Test readout: pIC50

Solved entries:
- Smiles record: "O=C(N1CCOCCOCCOCCN(C(=O)C23CC4CC(CC(C4)C2)C3)CCOCC1)C12CC3CC(CC(C3)C1)C2"
  pIC50: 5.08
- Smiles record: "O=C(N1CCOCCOCCN(C(=O)C23CC4CC(CC(C4)C2)C3)CCOCCOCC1)C12CC3CC(CC(C3)C1)C2"
  pIC50: 4.51

A. O=C(CC12CC3CC(CC(C3)C1)C2)N1CCOCCOCCN(C(=O)CC23CC4CC(CC(C4)C2)C3)CCOCC1
B. O=C(N1CCOCCOc2ccccc2OCCOCC1)C12CC3CC(CC(C3)C1)C2
Q: Field: entry with larger pIC50 (options A / B ). // return label of chosen record
Ans: A
(A: 5.14, B: 4.44)

###

Molecular target: FPR1 (Homo sapiens)
Sequence (P21462 1-350): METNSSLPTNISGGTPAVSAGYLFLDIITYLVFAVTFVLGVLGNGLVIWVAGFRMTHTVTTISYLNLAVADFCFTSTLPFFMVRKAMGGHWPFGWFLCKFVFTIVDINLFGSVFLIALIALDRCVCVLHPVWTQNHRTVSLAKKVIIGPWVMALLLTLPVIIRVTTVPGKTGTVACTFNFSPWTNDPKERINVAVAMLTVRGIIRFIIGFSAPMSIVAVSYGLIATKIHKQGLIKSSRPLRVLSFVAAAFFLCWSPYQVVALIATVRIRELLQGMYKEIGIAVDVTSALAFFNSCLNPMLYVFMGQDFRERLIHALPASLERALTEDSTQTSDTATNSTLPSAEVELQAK
Assay: Inhibition of fMLF-induced [Ca2+]i flux in FPR1-HL60 cells
Settings: 10 min preincubation, 5 nM fMLF; N.A. = no activity at < 50 µM; read-out: FPR1/FPR2 Agonist-Induced Δ[Ca^2+]i FPR1-HL60 IC50
pIC50: −log10 of the molar value.
Test readout: pIC50

Past entries and their recorded results:
- Compound: "O=C(CC12CC3CC(CC(C3)C1)C2)N1CCOCCOCCN(C(=O)CC23CC4CC(CC(C4)C2)C3)CCOCCOCC1 [Compound 17]"
  Test readout: "pIC50"
  Observed result: 5.43
- Compound: "O=C(N1CCOCCOCCOCCN(C(=O)C23CC4CC(CC(C4)C2)C3)CCOCC1)C12CC3CC(CC(C3)C1)C2 [Compound 14]"
  Test readout: "pIC50"
  Observed result: 4.94
- Compound: "O=C(N1CCOCCOCCN(C(=O)C23CC4CC(CC(C4)C2)C3)CCOCCOCC1)C12CC3CC(CC(C3)C1)C2 [Compound 16]"
  Test readout: "pIC50"
  Observed result: 5.14

A. O=C(N1CCOCCOc2ccccc2OCCOCC1)C12CC3CC(CC(C3)C1)C2 [Compound 10]
B. O=C(CC12CC3CC(CC(C3)C1)C2)N1CCOCCOCCN(C(=O)CC23CC4CC(CC(C4)C2)C3)CCOCC1 [Compound 15]
C. O=C(CC12CC3CC(CC(C3)C1)C2)N1CCOCCOCCOCCOCC1 [Compound 8, N-[2-(1-adamantyl)acetyl]aza-15-crown-5]
Q: // smallest pIC50 at index 0, largest at the end Quick reminder: the answer is the labels in the order asked.
Ans: C, A, B
(C: 4.43, A: 4.91, B: 5.32)

a. O=C(N1CCOCCOCCN(C(=O)C23CC4CC(CC(C4)C2)C3)CCOCC1)C12CC3CC(CC(C3)C1)C2 [Compound 13]
b. C1COCCN(CCC23CC4CC(CC(C4)C2)C3)CCOCCOCCN(CCC23CC4CC(CC(C4)C2)C3)CCO1 [Compound 21]
Q: Which value of pIC50 is greater, the one for a or the one for b ? Respond with the label that goes with your answer.
Ans: b

###

Test readout: melting point

The following molecules have reported results that may help.
- Molecule: "O=C(CC12CC3CC(CC(C3)C1)C2)NC12CC3CC(CC(C3)C1)C2 [Compound 3, N,2-di(1-adamantyl)acetamide]"
  melting point: "242 to 244 °C"
- Molecule: "O=C(NC1CCCCC1)C12CC3CC(CC(C3)C1)C2 [Compound 4, N-cyclohexyladamantane-1-carboxamide]"
  melting point: "174 to 176 °C"
- Molecule: "O=C(CC12CC3CC(CC(C3)C1)C2)N1CCOCCOc2ccccc2OCCOCC1 [Compound 11]"
  melting point: "141 to 142 °C"

Let us move to another entry and its melting point.
Q: Param item = C1COCCN(CC23CC4CC(CC(C4)C2)C3)CCOCCN(CC23CC4CC(CC(C4)C2)C3)CCO1 [Compound 19] ; retrieve measured melting point.
Ans: 74 to 78 °C

###

Molecular target: FPR2 (Homo sapiens)
Sequence (P25090 1-351): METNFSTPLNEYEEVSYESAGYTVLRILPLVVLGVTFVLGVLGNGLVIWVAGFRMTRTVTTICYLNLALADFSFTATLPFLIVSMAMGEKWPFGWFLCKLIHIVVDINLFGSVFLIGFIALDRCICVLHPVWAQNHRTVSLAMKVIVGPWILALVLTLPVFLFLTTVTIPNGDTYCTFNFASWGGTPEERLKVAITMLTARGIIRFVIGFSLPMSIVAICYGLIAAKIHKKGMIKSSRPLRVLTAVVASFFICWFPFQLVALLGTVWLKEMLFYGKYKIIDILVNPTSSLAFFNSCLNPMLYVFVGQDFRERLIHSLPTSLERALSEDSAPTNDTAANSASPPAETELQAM
Test: Inhibition of WKYMVM-induced [Ca2+]i flux in FPR2-HL60 cells
Details: 10 min preincubation, 5 nM WKYMVM; N.A. = no activity at < 50 µM; read-out: FPR1/FPR2 Agonist-Induced Δ[Ca^2+]i FPR2-HL60 IC50
pIC50: −log10 of the molar value.
Test readout: pIC50

I. C1COCCN(CCC23CC4CC(CC(C4)C2)C3)CCOCCOCCN(CCC23CC4CC(CC(C4)C2)C3)CCO1
II. O=C(CC12CC3CC(CC(C3)C1)C2)N1CCOCCOCCN(C(=O)CC23CC4CC(CC(C4)C2)C3)CCOCCOCC1
Q: Choose between I and II : whose measured pIC50 value is numerically larger? Label of pick, please.
Ans: II

Cited source for all entries: paper PMC8069214
